- System: Escherichia coli NIHJ JC-2
Recorded measurements of MIC, one per entry
Give the value in µg/mL but do not write µg/mL after it.

>>> reported_result("CN1COc2c(N3CCNC(c4ccccc4)C3)c(F)cc3c(=O)c(C(=O)O)cn1c23 (stereo not shown)")
0.05
>>> reported_result("CNC1CCN(c2c(F)cc3c(=O)c(C(=O)O)cn4c3c2OCN4C)C1 (stereo not shown)")
0.05
>>> reported_result("CN1COc2c(N3CCN(CS(=O)(=O)O)CC3)c(F)cc3c(=O)c(C(=O)O)cn1c23")
0.05

Please state recorded MIC (tested on Escherichia coli NIHJ JC-2) of "Cc1cn(-c2c(F)cc3c(=O)c(C(=O)O)cn4c3c2OCN4C)cn1"
0.1

Provide value of MIC for this record tested with Escherichia coli NIHJ JC-2: CC1Oc2c(N3CCNCC3)c(F)cc3c(=O)c(C(=O)O)cn(c23)N1C (stereo not shown)
0.78

Give recorded MIC with Escherichia coli NIHJ JC-2 for the following molecule: CC1CN(c2c(F)cc3c(=O)c(C(=O)O)cn4c3c2OCN4C)CCN1 (stereo not shown)
0.1

I'm curious: which MIC was measured for "CCNC1CCN(c2c(F)cc3c(=O)c(C(=O)O)cn4c3c2OCN4C)CC1" tested on Escherichia coli NIHJ JC-2?
0.1

---

- System: Enterobacter cloacae NR 2946
We label by threshold. Values of MIC strictly beneath 0.4 µg/mL are Criterion met. Values of 0.4 µg/mL and up are Criterion not met.

Solved entries (count: 2):
>>> classification("Cc1cn(-c2c(F)cc3c(=O)c(C(=O)O)cn4c3c2OCN4C)cn1")
"Criterion met"
>>> classification("CCN1CCN(c2c(F)cc3c(=O)c(C(=O)O)cn4c3c2OCN4C)CC1")
"Criterion met"

Here is another compound to look at.
Given "CN1CCN(c2c(F)cc3c(=O)c(C(=O)O)cn4c3c2OCN4CCF)CC1" , is recorded MIC strictly lower than 0.4 µg/mL?
Criterion met

---

// each record: one item and its MIC for Serratia marcescens IFO 12648
Report the value in µg/mL with no unit label.

Below, each entry is followed by its recorded MIC result.
>>> reported_result("CCNCC1CCN(c2c(F)cc3c(=O)c(C(=O)O)cn4c3c2OCN4C)C1 (stereo not drawn)")
0.39
>>> reported_result("CN1COc2c(N3CCC(CN)C3)c(F)cc3c(=O)c(C(=O)O)cn1c23 (stereo not drawn)")
0.39

Turning to the following compound.
Under Serratia marcescens IFO 12648: MIC value of CC1CN(c2c(F)cc3c(=O)c(C(=O)O)cn4c3c2OCN4C)CCN1C (stereo not drawn) ?
0.39

---

- Tested on: Klebsiella pneumoniae FDA PCI 602
Entries and their log10(MIC) values follow.
Response schema: value (number) is log10 of MIC in units of µg/mL.

>>> reported_result("CN1CCN(c2c(F)cc3c(=O)c(C(=O)O)cn4c3c2OCN4CCF)CC1 [Example 69]")
-0.41
>>> reported_result("CNCC1CCN(c2c(F)cc3c(=O)c(C(=O)O)cn4c3c2OCN4C)C1 (stereo not drawn) [Example 17]")
-0.11
>>> reported_result("CNC1CCN(c2c(F)cc3c(=O)c(C(=O)O)cn4c3c2OCN4C)C1 (stereo not drawn) [Example 31]")
-0.70
>>> reported_result("CC(=O)NCC1CCN(c2c(F)cc3c(=O)c(C(=O)O)cn4c3c2OCN4C)C1 (stereo not drawn) [Example 19]")
0.80
>>> reported_result("CCNC1CCN(c2c(F)cc3c(=O)c(C(=O)O)cn4c3c2OCN4C)C1 (stereo not drawn) [Example 32]")
-0.41

Now turn to the next molecule.
Return reported log10(MIC); argument: CN1COc2c(N3CCNCC3)c(F)cc3c(=O)c(C(=O)O)cn1c23 [Example 6]
-1.00

---

For reference, MIC measured on Escherichia coli NIHJ JC-2:
Give the value, in units of µg/mL, as a plain number.

Here's what some known entries look like.
>>> reported_result("CN1COc2c(N3CCNC(=O)C3)c(F)cc3c(=O)c(C(=O)O)cn1c23")
1.56
>>> reported_result("CC(=O)N1CCN(c2c(F)cc3c(=O)c(C(=O)O)cn4c3c2OCN4C)CC1")
1.56
>>> reported_result("CC(=O)CCN1CCN(c2c(F)cc3c(=O)c(C(=O)O)cn4c3c2OCN4C)CC1")
0.1
>>> reported_result("CN1COc2c(N3CCS(=O)(=O)CC3)c(F)cc3c(=O)c(C(=O)O)cn1c23")
0.78
>>> reported_result("CN1COc2c(N3CCN(CC(=O)O)CC3)c(F)cc3c(=O)c(C(=O)O)cn1c23")
0.2
>>> reported_result("CN1COc2c(N3CCC(CN)CC3)c(F)cc3c(=O)c(C(=O)O)cn1c23")
0.2

Now look at this entry.
I would be grateful if you could share the reported MIC for CC1Oc2c(N3CCN(C)CC3)c(F)cc3c(=O)c(C(=O)O)cn(c23)N1C (stereo not shown) .
0.78

---

- Test system: Klebsiella pneumoniae FDA PCI 602
Below, each of the compounds is paired with its reported MIC value.
Give the value, in units of mg/L, as a plain number.

Below, 2 compounds whose answers are already recorded.
>>> reported_result("CCCN1CCN(c2c(F)cc3c(=O)c(C(=O)O)cn4c3c2OCN4C)CC1")
0.39
>>> reported_result("CN1COc2c(N3CCN(CC(=O)O)CC3)c(F)cc3c(=O)c(C(=O)O)cn1c23")
0.39

# query: MIC of entry CC1CN(c2c(F)cc3c(=O)c(C(=O)O)cn4c3c2OCN4C)CCN1 (stereo not drawn)
0.39

---

Dear all, this message contains MIC results, target or system Enterococcus faecalis NR 2943.
Write down the numeric answer in µg/mL and omit the unit.

Example results:
>>> reported_result("CN1CCN(c2c(F)cc3c(=O)c(C(=O)O)cn4c3c2OC(CO)N4C)CC1 (stereo not drawn) [Example 27]")
50
>>> reported_result("CN1COc2c(-n3ccnc3)c(F)cc3c(=O)c(C(=O)O)cn1c23 [Example 56]")
12.5

As a next step, examine the molecule that follows.
Could you tell me which MIC is on file for C=CCN1CCN(c2c(F)cc3c(=O)c(C(=O)O)cn4c3c2OCN4C)CC1 [Example 46] ?
6.25

---

- Test system: Enterobacter cloacae NR 2946
metric: MIC (µg/mL)
Write it as a number; the unit µg/mL goes unstated.

Below are worked cases with known answers.
>>> reported_result("CCCN1CCN(c2c(F)cc3c(=O)c(C(=O)O)cn4c3c2OCN4C)CC1")
0.1
>>> reported_result("COC1CCN(c2c(F)cc3c(=O)c(C(=O)O)cn4c3c2OCN4C)C1 (stereo not drawn)")
0.2
>>> reported_result("CC(=O)NCC1CCN(c2c(F)cc3c(=O)c(C(=O)O)cn4c3c2OCN4C)C1 (stereo not drawn)")
1.56

Notebook: pull reported MIC for Enterobacter cloacae NR 2946, entry "CN1COc2c(N3CCN(C(=O)CCC(=O)O)CC3)c(F)cc3c(=O)c(C(=O)O)cn1c23"
0.78

Please provide the recorded MIC for "CC(=O)CN1CCN(c2c(F)cc3c(=O)c(C(=O)O)cn4c3c2OCN4C)CC1" , tested on Enterobacter cloacae NR 2946.
0.39

# query: MIC | item "CN1COc2c(N3CCN(CC(=O)c4ccccc4)CC3)c(F)cc3c(=O)c(C(=O)O)cn1c23" | system: Enterobacter cloacae NR 2946
0.78

---

Please consider the recorded MIC for Enterobacter cloacae NR 2946 in what follows.
Give just the number in µg/mL; leave the unit off.

In the examples that follow, each entry is paired with its recorded MIC.
>>> reported_result("CN1COc2c(N3CCC(O)CC3)c(F)cc3c(=O)c(C(=O)O)cn1c23")
0.39
>>> reported_result("CN1COc2c(N3CCNCC3)c(F)cc3c(=O)c(C(=O)O)cn1c23")
0.025

--- query ---
What does the record list as MIC for CNCC1CCN(c2c(F)cc3c(=O)c(C(=O)O)cn4c3c2OCN4C)C1 (stereo not drawn) ?
0.1
